target: human CYP2C9 (Homo sapiens, UniProt P11712); assay: biochemical; details: CYP2C9 IC50 (half-maximal inhibitory concentration)
Sequence (P11712 whole entry): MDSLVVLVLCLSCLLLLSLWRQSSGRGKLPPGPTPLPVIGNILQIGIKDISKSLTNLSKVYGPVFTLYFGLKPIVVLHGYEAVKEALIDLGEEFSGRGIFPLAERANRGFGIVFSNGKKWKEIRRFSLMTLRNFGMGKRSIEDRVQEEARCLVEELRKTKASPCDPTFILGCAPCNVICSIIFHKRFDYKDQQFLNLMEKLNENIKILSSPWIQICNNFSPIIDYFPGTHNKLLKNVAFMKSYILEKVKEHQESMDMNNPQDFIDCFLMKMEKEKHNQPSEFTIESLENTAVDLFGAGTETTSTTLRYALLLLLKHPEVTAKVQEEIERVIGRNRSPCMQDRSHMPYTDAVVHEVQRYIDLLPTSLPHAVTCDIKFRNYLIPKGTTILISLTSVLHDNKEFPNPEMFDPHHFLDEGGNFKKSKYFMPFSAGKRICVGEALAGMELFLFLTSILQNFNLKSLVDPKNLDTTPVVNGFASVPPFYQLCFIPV
Hi! Just check whether IC50 is below 9 µM. Below gives 1.0, equal or above gives 0.0.

Take a look at these entries with their results.
compound: CC(O)(c1ccc(Cl)cc1)c1ccc(Cl)cc1 [Chlorfenethol]
assigned-category: 1.0
//
compound: CC(C)(C)C(=O)C(Oc1ccc(Cl)cc1)n1ccnc1 (centres unmarked) [Climbazole]
assigned-category: 1.0
//
compound: CN1C[C@H](C(=O)N[C@]2(C)O[C@@]3(O)[C@@H]4CCCN4C(=O)[C@H](Cc4ccccc4)N3C2=O)C=C2c3cccc4[nH]cc(c34)C[C@H]21 [Ergotamine D-tartrate]
assigned-category: 0.0
//
compound: CCCCC(O)(Cn1cncn1)c1ccc(Cl)cc1Cl (centres unmarked) [Hexaconazole]
assigned-category: 1.0
//
compound: CN(C)C(=O)Nc1ccc(Cl)c(Cl)c1 [Diuron]
assigned-category: 0.0
//
compound: COc1c2ccoc2cc2oc(=O)ccc12 [5-Methoxypsoralen]
assigned-category: 1.0
//
compound: CCOP(=S)(OCC)Oc1ccc(Cl)cc1Cl [Dichlofenthion]
assigned-category: 1.0
//
compound: COc1c2occc2c(OC)c2c(=O)cc(C)oc12 [Khellin]
assigned-category: 0.0
//
compound: O=c1c(-c2ccc(O)cc2)coc2cc(O)ccc12 [Daidzein]
assigned-category: 1.0
//
compound: COC(=O)N(C(=O)N1COC2(C(=O)OC)Cc3cc(Cl)ccc3C2=N1)c1ccc(OC(F)(F)F)cc1 (racemic) [(+-)-Indoxacarb]
assigned-category: 1.0

Task: Does the reported IC50 of CC(C)(C)C(=O)OCOC(=O)[C@@H]1N2C(=O)[C@@H](NC(=O)[C@H](N)c3ccccc3)[C@H]2SC1(C)C [Pivampicillin] stay below 9 µM?
Output: 0.0

Task: Does the reported IC50 of Oc1ccc2ccc3cccc4ccc1c2c34 [1-Hydroxypyrene] stay below 9 µM?
Output: 0.0

Task: Does the reported IC50 of COc1ccc2c(c1OC)CN1CCc3cc4c(cc3[C@@H]1C2)OCO4 [Canadine] stay below 9 µM?
Output: 0.0

Task: Does the reported IC50 of Cc1cc(O)c(C(C)(C)C)cc1Sc1cc(C(C)(C)C)c(O)cc1C [4,4'-Thiobis(6-tert-butyl-m-cresol)] stay below 9 µM?
Output: 1.0

Task: Does the reported IC50 of O=S(=O)(c1ccc(Cl)cc1)c1cc(Cl)c(Cl)cc1Cl [Tetradifon] stay below 9 µM?
Output: 0.0

Task: Does the reported IC50 of c1ccc(-c2ccc(C(c3ccccc3)n3ccnc3)cc2)cc1 (centres unmarked) [Bifonazole] stay below 9 µM?
Output: 1.0

Task: Does the reported IC50 of Clc1ccc(C(c2ccc(Cl)cc2)C(Cl)Cl)cc1 [p,p'-DDD] stay below 9 µM?
Output: 1.0

Task: Does the reported IC50 of COP(N)(=S)Oc1ccccc1C(=O)OC(C)C (centres unmarked) [Isocarbophos] stay below 9 µM?
Output: 1.0
